system: Alopecurus myosuroides; assay: Herbicidal post-emergence action; type: in vivo; conditions: post-emergence method, 80 g/ha
Quantity kind: herbicidal effect against ALOMY (Alopecurus myosuroides)
Please provide the amount together with its unit, number first.

{"Compound": "CCc1cc(C)cc(CC)c1C1=C(OC(=O)C(C)(C)C)C2CC3(CC2C1=O)OCCCO3 (stereo not drawn) [I-b-22]", "System": "Alopecurus myosuroides", "Observed measurement": "100%"}
{"Compound": "CCc1cc(C)cc(CC)c1C1=C(OC(=O)C(C)C)C2CC3(COC(C)(C)O3)CC2C1=O (stereo not drawn) [I-b-3]", "System": "Alopecurus myosuroides", "Observed measurement": "100%"}
{"Compound": "CCOC(=O)OC1=C(c2c(CC)cc(C)cc2CC)C(=O)C2CC(=NOC(C)(C)C)CC12 (stereo not drawn)", "System": "Alopecurus myosuroides", "Observed measurement": "70%"}

Qu. Input CCOC(=O)OC1=C(c2c(CC)cc(C)cc2CC)C(=O)C2CC3(CC12)OC(C)CC(C)O3 (mixture of isomers) [I-c-10] , output reported herbicidal effect against ALOMY (Alopecurus myosuroides).
Ans. 90%

Qu. Return the recorded herbicidal effect against ALOMY (Alopecurus myosuroides) value; entry: COc1cc(C)cc(C)c1C1=C(OC(=O)C(C)C)C2CC3(CC2C1=O)OCCO3 (stereo not drawn)
Ans. 90%

Qu. Please supply the value of reported herbicidal effect against ALOMY (Alopecurus myosuroides) for the item CCc1cc(C)cc(CC)c1C1=C(O)[C@H]2CC(=NOC3CC3)C[C@H]2C1=O (relative stereo)
Ans. 90%

Qu. Specify reported herbicidal effect against ALOMY (Alopecurus myosuroides) for the compound shown: CCc1cc(C)cc(C)c1C1=C(OC(=O)C(C)C)C2CC3(CC2C1=O)OCCCCO3 (stereo not drawn)
Ans. 100%

Qu. Please look at this compound and report its herbicidal effect against ALOMY (Alopecurus myosuroides): CCC(C)(C)C(=O)OC1=C(c2c(C)cc(C)cc2C)C(=O)C2CC3(COC(C)(C)O3)CC12 (mixture of isomers)
Ans. 80%

----------
# reported herbicidal effect against ALOMY (Alopecurus myosuroides); entries follow
tested on: Alopecurus myosuroides; test: Herbicidal post-emergence action; assay type: in vivo; conditions: post-emergence method, 80 g/ha
Include the unit right after the number.

{"Molecule": "CCc1cc(C)cc(CC)c1C1=C(OC(=O)COC)C2CC3(CC2C1=O)OCCCO3 (centres unmarked)", "Observed measurement": "100%"}
{"Molecule": "CCOC1COC2(CC3C(=O)C(c4c(CC)cc(C)cc4CC)=C(OC(=O)C(C)C)C3C2)OC1 (centres unmarked)", "Observed measurement": "100%"}
{"Molecule": "CCc1cc(C)cc(CC)c1C1=C(OC(=O)C(C)C)C2CC3(COC(C)(C)O3)CC2C1=O (centres unmarked) [I-b-7]", "Observed measurement": "90%"}

Qu. Supply recorded herbicidal effect against ALOMY (Alopecurus myosuroides) for C=C1CC2C(=O)C(c3c(C)cc(C)cc3C)=C(OC(=O)OC)C2C1 (racemic) here.
Ans. 40%

Qu. Assign herbicidal effect against ALOMY (Alopecurus myosuroides) to the following record: CCOC(=O)OC1=C(c2c(C)cc(C)cc2C)C(=O)C2CC3(CC12)OCCO3 (centres unmarked)
Ans. 40%

Qu. Determine its reported herbicidal effect against ALOMY (Alopecurus myosuroides): CCc1cc(C)cc(CC)c1C1=C(O)C2CC3(CC2C1=O)OCC(C)O3 (mixture of isomers)
Ans. 90%

Qu. Respond only with herbicidal effect against ALOMY (Alopecurus myosuroides) recorded for COc1cc(C)cc(C)c1C1=C(O)C2CC3(CC2C1=O)OCCCCO3 (centres unmarked)
Ans. 100%

Qu. Indicate the recorded herbicidal effect against ALOMY (Alopecurus myosuroides) value for this molecule: Cc1cc(C)c(C2=C(OC(=O)C(C)(C)C)C3CC4(COC(C)(C)O4)CC3C2=O)c(C)c1 (mixture of isomers)
Ans. 90%

----------
tested on: Setaria viridis; assay: Herbicidal pre-emergence action; format: in vivo; conditions: pre-emergence method, 80 g/ha, greenhouse, visual assessment vs untreated controls
Quantity kind: herbicidal effect SETVI
Entry format: amount then unit.

Qu. Look up and report measured herbicidal effect SETVI for this entry: C=C1CC2C(=O)C(c3c(C)cc(C)cc3C)=C(OC(=O)C(C)(C)C)C2C1 (centres unmarked)
Ans. 70%

----------
test system: cereals; assay: Container trials with cereals in the greenhouse, use of safeners (Mefenpyr 1 day prior to herbicide application); format: in vivo; details: summer barley, 28 days after application, 25 g of a.i./ha
Reported Summer barley observed (%) values follow for various compounds
Just the number in %, nothing appended.

Here are 2 compounds together with their reported answers.
{"Compound": "CCc1cc(C)cc(CC)c1C1=C(OC(=O)OC(C)C)[C@H]2C[C@]3(COC(C)(C)O3)C[C@H]2C1=O (relative stereo) [I-c-3]", "System": "cereals", "Unit spec": "%", "Summer barley observed (%)": 15}
{"Compound": "CCc1cc(C)cc(CC)c1C1=C(O)[C@H]2CC3(C[C@H]2C1=O)OCC=CCO3 (relative stereo) [I-a-14]", "System": "cereals", "Unit spec": "%", "Summer barley observed (%)": 8}

Qu. Provide measured Summer barley observed (%) value, entry: CCc1cc(C)cc(C)c1C1=C(O)C2CC3(CC2C1=O)OCCCO3 (centres unmarked) [I-a-58]
Ans. 5

Qu. Write down Summer barley observed (%) measured for item C=C1COC2(C[C@@H]3C(O)=C(c4c(CC)cc(C)cc4CC)C(=O)[C@@H]3C2)OC1 [I-a-3]
Ans. 20

Qu. Give the reported Summer barley observed (%) for this compound. CCc1cc(C)cc(CC)c1C1=C([O-])C2CC3(CC2C1=O)OC(C)CC(C)O3.[Na+] (mixture of isomers) [I-f-19]
Ans. 10

----------
test system: Alopecurus myosuroides; experiment: Herbicidal post-emergence action; format: in vivo; settings: post-emergence method, 80 g/ha
Quantity kind: herbicidal effect against ALOMY (Alopecurus myosuroides) (%)
Numeric answer only, unit % assumed.

Here are 3 compounds together with their reported answers.
{"Compound": "CCc1cc(C)cc(CC)c1C1=C(O)C2CC(=NOCC(F)(F)F)CC2C1=O (centres unmarked) [I-a-70]", "Unit spec": "%", "Observed measurement": 90}
{"Compound": "CCOC(=O)OC1=C(c2c(C)cc(C)cc2C)C(=O)C2CC(=O)CC12 (racemic) [I-c-58]", "Unit spec": "%", "Observed measurement": 0}
{"Compound": "CCc1cc(C)cc(CC)c1C1=C(OC(=O)OC(C)C)C2CC3(COC(C)(C)O3)CC2C1=O (centres unmarked) [I-c-2]", "Unit spec": "%", "Observed measurement": 90}

Qu. Give recorded herbicidal effect against ALOMY (Alopecurus myosuroides). CCc1cc(C)cc(CC)c1C1=C(OC(=O)C(C)(C)C)C2CC3(CC2C1=O)OCCCO3 (centres unmarked) [I-b-27]
Ans. 100

Qu. Annotate the compound CCc1cc(C)cc(CC)c1C1=C(OC(=O)C(C)(C)C)C2CC3(CC2C1=O)OCCCS3 (mixture of isomers) [I-b-20] with its measured herbicidal effect against ALOMY (Alopecurus myosuroides).
Ans. 0

Qu. Assign herbicidal effect against ALOMY (Alopecurus myosuroides) to the following record: COC(=O)OC1=C(c2c(C)cc(C)cc2C)C(=O)C2CC3(CC12)OCC(C)CO3 (mixture of isomers) [I-c-53]
Ans. 100

Qu. Please report the measured herbicidal effect against ALOMY (Alopecurus myosuroides) for Cc1cc(C)c(C2=C(OC(=O)C(C)(C)CCl)C3CC4(COC(C)(C)O4)CC3C2=O)c(C)c1 (mixture of isomers) [I-b-51]
Ans. 90

Qu. Read off the recorded herbicidal effect against ALOMY (Alopecurus myosuroides) for Cc1cc(C)c(C2=C(OC(=O)C(C)(C)CCl)C3CC(=O)CC3C2=O)c(C)c1 (centres unmarked) [I-b-52]
Ans. 0

----------
Each entry below lists one item and its recorded herbicidal effect against ALOMY (Alopecurus myosuroides) value.
tested on: Alopecurus myosuroides; test: Herbicidal post-emergence action; format: in vivo; conditions: post-emergence method, 80 g/ha
# number only, unit % dropped from output

Worked examples follow.
{"Compound": "CCc1cc(C)cc(CC)c1C1=C(OC(=O)C(C)(C)C)C2CC3(CC2C1=O)OCCS3 (mixture of isomers) [I-b-19]", "Observed measurement": 20}
{"Compound": "CCOC(=O)OC1=C(c2c(CC)cc(C)cc2CC)C(=O)C2CC3(CC12)OCC(C)(C)CO3 (stereo not drawn) [I-c-22]", "Observed measurement": 100}
{"Compound": "CCc1cc(C)cc(CC)c1C1=C(O)[C@H]2CC3(C[C@H]2C1=O)OCCCO3 (relative stereo) [I-a-11]", "Observed measurement": 90}
{"Compound": "CCC(=O)OC1=C(c2c(CC)cc(C)cc2CC)C(=O)C2CC3(CC12)OCCCO3 (stereo not drawn) [I-b-24]", "Observed measurement": 100}
{"Compound": "Cc1cc(C)c(C2=C([O-])C3CC4(CC3C2=O)OCCO4)c(C)c1.[Na+] (stereo not drawn) [I-f-11]", "Observed measurement": 60}
{"Compound": "CCc1cc(C)cc(CC)c1C1=C(O)C2CC3(COC(CC)O3)CC2C1=O (stereo not drawn) [I-a-6]", "Observed measurement": 90}

Qu. Specify herbicidal effect against ALOMY (Alopecurus myosuroides) for CCc1cc(C)cc(C)c1C1=C(O)C2CC3(CC2C1=O)OCCO3 (stereo not drawn) [I-a-57] and stop.
Ans. 100
